Reported IC50 values for a set of molecules
- assay_target: human VPS34 (Homo sapiens (Human), UniProt Q8NEB9)
- Sequence (Q8NEB9 whole entry): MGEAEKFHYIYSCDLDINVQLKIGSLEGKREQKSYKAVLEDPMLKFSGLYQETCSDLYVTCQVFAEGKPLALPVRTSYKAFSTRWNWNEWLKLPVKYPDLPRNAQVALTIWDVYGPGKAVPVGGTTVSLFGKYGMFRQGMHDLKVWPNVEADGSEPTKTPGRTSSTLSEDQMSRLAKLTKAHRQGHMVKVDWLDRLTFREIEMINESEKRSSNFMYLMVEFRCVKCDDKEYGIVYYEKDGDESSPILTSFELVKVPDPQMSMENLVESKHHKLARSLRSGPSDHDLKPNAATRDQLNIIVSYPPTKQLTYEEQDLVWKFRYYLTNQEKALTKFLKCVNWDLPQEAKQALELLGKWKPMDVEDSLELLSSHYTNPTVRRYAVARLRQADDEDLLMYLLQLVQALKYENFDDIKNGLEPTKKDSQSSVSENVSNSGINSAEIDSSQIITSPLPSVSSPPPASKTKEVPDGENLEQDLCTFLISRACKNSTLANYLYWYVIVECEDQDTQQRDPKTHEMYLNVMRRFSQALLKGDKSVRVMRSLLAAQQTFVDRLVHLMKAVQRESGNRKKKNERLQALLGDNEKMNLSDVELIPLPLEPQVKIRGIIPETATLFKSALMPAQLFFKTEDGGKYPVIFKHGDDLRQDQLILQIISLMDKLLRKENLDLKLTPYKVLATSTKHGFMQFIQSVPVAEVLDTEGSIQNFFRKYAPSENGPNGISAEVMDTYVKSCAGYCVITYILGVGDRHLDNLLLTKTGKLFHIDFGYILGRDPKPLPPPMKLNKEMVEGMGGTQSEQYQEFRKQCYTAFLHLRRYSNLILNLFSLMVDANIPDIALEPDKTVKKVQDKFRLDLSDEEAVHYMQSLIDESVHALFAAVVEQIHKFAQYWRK
- assay: Human VPS34 enzyme assay (Adapta TR-FRET ADP detection)
- Assay type: biochemical
- settings: IC50 range class

Sample records with IC50:
# get_value(readout= IC50, system= human VPS34 (Homo sapiens (Human), UniProt Q8NEB9)) for CC(=O)Nc1cc(-c2cnc(C)c(S(=O)(=O)NC34CC(C3)C4)c2)ccn1
10 to 50 nM

Next entry: CC(=O)Nc1cc(-c2cncc(NC(=O)c3ccccc3)c2)ccn1
> 100 nM

# repeat for CC(=O)Nc1cc(-c2cnc(N)c(C(=O)N(C)C)c2)ccn1
10 to 50 nM

Try CC(=O)Nc1cc(-c2cnc(N)c(S(=O)(=O)N3CCCCC3)c2)ccn1 next.
< 10 nM

Please give the result for CC(=O)Nc1cc(-c2cnc(N)c(C(=O)N3CCN(C)CC3)c2)ccn1 too.
10 to 50 nM

Now try CC(=O)Nc1cc(-c2cnc(N)c(S(=O)(=O)N3CCCC3)c2)ccn1 .
< 10 nM

New cases:
Reported IC50 for human VPS34 (Homo sapiens (Human), UniProt Q8NEB9), given CC(=O)Nc1cc(-c2cnc(C)c(NS(=O)(=O)c3ccc(F)cc3F)c2)ccn1 ?
< 10 nM

Request: Cc1nccc(Nc2cc(-c3cncc(OC4CCc5c(F)cccc54)c3)ccn2)n1 (centres unmarked)
> 100 nM

What about CC(=O)Nc1cc(-c2cnc(N)c(S(=O)(=O)NCC3CC3)c2)ccn1 ?
10 to 50 nM

Can you handle O=C(Nc1cc(-c2cnc3[nH]ncc3c2)ccn1)C1CC1 next?
10 to 50 nM

Same for Cc1cc(Nc2cc(-c3cnc(Cl)c(NS(=O)(=O)c4ccc(F)cc4F)c3C)ccn2)nc(C)n1
10 to 50 nM

CC(=O)Nc1cc(-c2cnc(C)c(NS(=O)(=O)c3cccc(F)c3)c2)ccn1 , same question.
< 10 nM

Now give it for Cc1cc(Nc2cc(-c3cnc(Cl)c(NS(=O)(=O)c4ccc(F)cc4F)c3C)ccn2)ccn1 too.
50 to 100 nM

Same read-out for CC(=O)Nc1cc(-c2cnc(N)c(C(=O)NC3CCOCC3)c2)ccn1 ?
50 to 100 nM

Where do the numbers come from? From patent US9751854B2.
